# SYSTEM TESTED: UniProt Q9EQZ6
# Sequence (Q9EQZ6 1-993 isoform Q9EQZ6-3): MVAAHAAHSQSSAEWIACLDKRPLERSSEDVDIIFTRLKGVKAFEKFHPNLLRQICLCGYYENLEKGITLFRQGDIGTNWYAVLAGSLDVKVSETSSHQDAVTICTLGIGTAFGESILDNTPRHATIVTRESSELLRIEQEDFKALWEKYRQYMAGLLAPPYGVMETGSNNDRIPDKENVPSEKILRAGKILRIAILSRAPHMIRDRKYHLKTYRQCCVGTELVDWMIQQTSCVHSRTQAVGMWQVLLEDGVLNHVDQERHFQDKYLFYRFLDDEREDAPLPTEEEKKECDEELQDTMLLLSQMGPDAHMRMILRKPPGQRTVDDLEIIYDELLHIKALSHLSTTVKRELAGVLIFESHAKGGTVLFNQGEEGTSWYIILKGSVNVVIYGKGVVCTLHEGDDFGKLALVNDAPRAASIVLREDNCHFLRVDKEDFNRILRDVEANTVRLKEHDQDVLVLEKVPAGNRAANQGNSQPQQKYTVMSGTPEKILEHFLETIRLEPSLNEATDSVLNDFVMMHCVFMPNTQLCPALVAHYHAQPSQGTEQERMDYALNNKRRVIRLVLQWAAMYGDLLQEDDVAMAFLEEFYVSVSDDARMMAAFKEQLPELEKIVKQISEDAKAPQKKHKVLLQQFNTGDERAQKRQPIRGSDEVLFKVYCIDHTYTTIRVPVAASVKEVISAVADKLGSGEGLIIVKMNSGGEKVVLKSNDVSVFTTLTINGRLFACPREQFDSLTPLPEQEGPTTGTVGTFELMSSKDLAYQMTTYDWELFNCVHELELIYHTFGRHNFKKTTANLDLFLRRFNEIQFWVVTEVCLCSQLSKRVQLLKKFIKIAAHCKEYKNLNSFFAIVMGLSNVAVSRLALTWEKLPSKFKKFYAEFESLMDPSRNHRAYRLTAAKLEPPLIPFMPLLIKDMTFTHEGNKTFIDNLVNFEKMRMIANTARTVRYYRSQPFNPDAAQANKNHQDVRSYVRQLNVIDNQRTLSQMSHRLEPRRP
# EXPERIMENT DESCRIPTION: Epac activation assay, full length Epac2
# Format: biochemical
# Parameters: made in house
# MEASUREMENT CONTEXT: 1 μM compound
QUANTITY MEASURED: kobs

> print(dat)
                                   compound   system.tested         value
1  Nc1ncnc2c1nc(SCc1ccccc1)n2[C@@H]1O[C@@H]2CO[P@](O)(=S)O[C@H]2[C@H]1O  UniProt Q9EQZ6  0.000509 s⁻¹
2  Nc1ncnc2c1ncn2[C@@H]1O[C@@H]2COP(=O)(O)O[C@H]2[C@H]1O [cAMP, reference compound]  UniProt Q9EQZ6  2.84e-05 s⁻¹
3  COC1C2OP(=O)(O)OCC2OC1n1c(Sc2ccc(Cl)cc2)nc2c(N)ncnc21 [D-007, 8-pCPT-2′-O-Me-cAMP, reference compound]  UniProt Q9EQZ6  1.95e-05 s⁻¹
4  Cc1ccc(CSc2nc3c(N)ncnc3n2[C@@H]2O[C@@H]3CO[P@](O)(=S)O[C@H]3[C@H]2O)cc1  UniProt Q9EQZ6   4.7e-05 s⁻¹

Values were extracted from paper PMC4300089.
